Tested on: A549
Experiment: Antiproliferative activity against human A549 cells incubated for 72 hrs by CCK8 cells
Type: functional, cell-based
Reported Conditions: A549, 72 h
Measurement Type: IC50 (µM)
Express it in µM; write the number only.

Example results:
INSERT INTO assay_data (compound, measurement_type, unit_tag, measured_result) VALUES
  ('C=C1C(=O)[C@]23[C@H](OC(=O)c4ccc(C#N)cc4)[C@H]1CC[C@H]2[C@@]12CO[C@]3(O)[C@@H](O)[C@@H]1C(C)(C)CC[C@@H]2O', 'IC50', 'µM', 17.4),
  ('CC(=O)O[C@H]1C(=O)[C@@]2(C)[C@H]([C@H](OC(=O)c3ccccc3)[C@]3(O)C[C@H](OC(=O)[C@H](O)[C@@H](NC(=O)c4ccccc4)c4ccccc4)C(C)=C1C3(C)C)[C@]1(OC(C)=O)CO[C@@H]1C[C@@H]2O [PACLITAXEL]', 'IC50', 'µM', 0.39),
  ('C=C1C(=O)[C@]23[C@H](OC(=O)c4ccc(F)c(NC(=O)c5ccc(OC)c(OCc6ccccc6)c5)c4)[C@H]1CC[C@H]2[C@@]12CO[C@]3(O)[C@@H](O)[C@@H]1C(C)(C)CC[C@@H]2O', 'IC50', 'µM', 11),
  ('C=C1C(=O)[C@]23[C@H](OC(=O)c4ccc(F)cc4)[C@H]1CC[C@H]2[C@@]12CO[C@]3(O)[C@@H](O)[C@@H]1C(C)(C)CC[C@@H]2O', 'IC50', 'µM', 14.7);

From here, focus on the item given below.
Prompt line: IC50 lookup needed for `C=C1C(=O)[C@]23[C@H](OC(=O)c4ccc(OC)c(OCCBr)c4)[C@H]1CC[C@H]2[C@@]12CO[C@]3(O)[C@@H](O)[C@@H]1C(C)(C)CC[C@@H]2O` , thanks.
Response line: 11.5
